# assayedTarget: thrombin (Bos taurus, UniProt P00735)
# Construct: purchased Mochida Pharmaceutical Co., Ltd
# procedureSummary: fibrinogen coagulation time
# Assay type: biochemical
# measurementConditions: bovine fibrinogen, thrombin 5 units/ml, borate saline buffer pH 7.4, 25° C; control coagulation time 50-55 seconds
measuredQuantity: Concentration required to prolong the coagulation time by a factor of two (µM)
Give the number; µM is assumed, so skip it.

Examples with answers:
> print(dat)
                                  molsmiles  reported
1  COc1ccc2ccc(S(=O)(=O)N[C@@H](CCCNC(=N)N)C(=O)N(C)[C@@H](Cc3ccccc3)C(=O)O)cc2c1       2.5
2  COc1cc2ccc(S(=O)(=O)N[C@@H](CCCNC(=N)N)C(=O)N(Cc3ccccc3)[C@@H](C)C(=O)O)cc2cc1OC       2.5
3  CCC[C@H](NC(=O)[C@H](CCCNC(=N)N)NS(=O)(=O)c1ccc2cc(OC)c(OC)cc2c1)C(=O)O        15
4  COc1cc2ccc(S(=O)(=O)N[C@@H](CCCNC(=N)N)C(=O)N(C)[C@@H](Cc3ccccc3)C(=O)O)cc2cc1OC         2
5  COc1ccc2cc(S(=O)(=O)N[C@@H](CCCNC(=N)N)C(=O)N(CC3CCCCC3)[C@@H](C)C(=O)O)cc(OC)c2c1       4.5

Query block: Tell me the measured Concentration required to prolong the coagulation time by a factor of two of CCCCCN(C(=O)[C@H](CCCNC(=N)N)NS(=O)(=O)c1ccc2cc(OC)c(OC)cc2c1)[C@@H](C)C(=O)O , please.
Result block: 2.0

Query block: How about this compound: COc1cc2ccc(S(=O)(=O)N[C@@H](CCCNC(=N)N)C(=O)N(CCc3ccccc3)[C@@H](C)C(=O)O)cc2cc1OC
Result block: 1.5

Query block: How about this compound: COCCN(C(=O)[C@H](CCCNC(=N)N)NS(=O)(=O)c1ccc2cc(OC)c(OC)cc2c1)[C@@H](C)C(=O)O
Result block: 5
